Attribution: PubChem BioAssay AID2060485

Would you mind telling me the reported viability, T/C of each entry?
- Tested on: A375 multi-cell spheroids with HUVEC/MSC, viability
- Method Description: Anticancer human tumor A375 cell line growth inhibition [GQUAD];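 also: spheroids exposed to compounds for seven days before readout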
- Setup Conditions: second compound 0.0316 µM; first compound 0.0316 µM; active compounds read low
Value expressed in %; do not type the unit.

What value of measured viability, T/C is listed for O=c1[nH]cc(F)c(=O)[nH]1 + CN(C)c1ccc(Nc2c3ccc(NC(=O)CCN4CCCC4)cc3nc3cc(NC(=O)CCN4CCCC4)ccc23)cc1 ?
98.7

Subsequent entry: CC(C)(O)C1CCC(Nc2ccc3ncc(-c4cccc(C(F)(F)F)c4)n3n2)CC1 (configuration not stated) + CN(C)c1ccc(Nc2c3ccc(NC(=O)CCN4CCCC4)cc3nc3cc(NC(=O)CCN4CCCC4)ccc23)cc1
95.9

Subsequent entry: Cn1ncnc1[C@H]1c2n[nH]c(=O)c3cc(F)cc(c23)N[C@@H]1c1ccc(F)cc1 + Cc1[nH]c2ccc(F)cc2c1-c1nc2c3cccnc3c3ncccc3c2[nH]1
106

Subsequent entry: CC[C@@]1(O)C(=O)OCc2c1cc1n(c2=O)Cc2cc3c(CN(C)C)c(O)ccc3nc2-1 + Cc1[nH]c2ccc(F)cc2c1-c1nc2c3cccnc3c3ncccc3c2[nH]1
71.6

Subsequent entry: Nc1ccn(C2OC(CO)C(O)C2(F)F)c(=O)n1 (configuration not stated) + CN(C)c1ccc(Nc2c3ccc(NC(=O)CCN4CCCC4)cc3nc3cc(NC(=O)CCN4CCCC4)ccc23)cc1
13.1

Subsequent entry: COc1ncnc(C2CC2)c1-c1ncc2cnn(Cc3ccc(-c4nc(C(F)(F)F)cn4C(C)C)cc3)c2n1 + CN(C)c1ccc(Nc2c3ccc(NC(=O)CCN4CCCC4)cc3nc3cc(NC(=O)CCN4CCCC4)ccc23)cc1
108

Subsequent entry: O=c1[nH]cc(F)c(=O)[nH]1 + Cc1cnc(CNC(=O)c2c(=O)c3ccc(N4CCCN(C)CC4)nc3n3c2sc2ccccc23)cn1
98.5
